# System: Serratia marcescens expressing IMP-1 (CL5741)
# Type: cell-based
# condition-set: with imipenem 1 μg/ml; 95% inhibition of bacterial growth
measurement-type: CL5741 S. marcescens MITC95 IMP (µM)
All answers are understood in µM, so give the number only.

Could you tell me which CL5741 S. marcescens MITC95 IMP is on file for NCCN1CCN(c2ccc(S(=O)(=O)N[C@@H]3CCNC3)c(S(N)(=O)=O)c2-c2nnn[nH]2)CC1 ?
3.13

Follow-up entry: NS(=O)(=O)c1c(S(=O)(=O)N[C@@H]2CCNC2)ccc(N2CCC(CCO)CC2)c1-c1nnn[nH]1
6.25

Follow-up entry: NC[C@@H](O)CNS(=O)(=O)c1ccc(N2CCC(C(N)CO)CC2)c(-c2nn[nH]n2)c1S(N)(=O)=O (mixture of isomers) [Example 182]
0.78

Follow-up entry: NC[C@@H](O)CNS(=O)(=O)c1ccc(N2CC[C@H](N)[C@H](F)C2)c(-c2nn[nH]n2)c1S(N)(=O)=O
0.20

Follow-up entry: NS(=O)(=O)c1c(S(=O)(=O)N[C@@H]2CCNC2)ccc(N2CCCNC2=O)c1-c1nn[nH]n1
1.56

Follow-up entry: NCC1C2CCC1CN(c1ccc(S(=O)(=O)NC[C@H](O)CN)c(S(N)(=O)=O)c1-c1nn[nH]n1)C2 (stereo partly shown)
2.34

Follow-up entry: NS(=O)(=O)c1c(S(=O)(=O)N[C@@H]2CCNC2)ccc(N2CCC(C(F)F)CC2)c1-c1nnn[nH]1
3.13
